- experiment description: in vitro;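 also: Phospholipid-membrane PAMPA, donor and acceptor in DPBS pH 7.4 with 5% DMSO, 37 °C for 5 h, compound in each well quantified by reverse-phase HPLC-MS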
- Set-up: dose or concentration left out as unconfirmed
- condition: PAMPA, pH 7.4, PAMPA Pe
measured endpoint: Papp at 5 h (×10⁻⁶ cm/s)
Answer with a number only, understood to be in ×10⁻⁶ cm/s.

query: Can you share its Papp at 5 h? I mean this compound: CNC(=O)[C@H](CC(N)=O)NC(=O)[C@H](CC(N)=O)NC(=O)[C@H](CC(C)C)NC(=O)[C@H](CC(C)C)NC(=O)[C@H](CC1CC1)NC(=O)[C@]1(C)CCCC=CC[C@]2(CCCN2C(C)=O)C(=O)N[C@@H](C)C(=O)N[C@@H](CC(C)C)C(=O)N1 (single isomer, unassigned)
result: 0.9

###

- condition: PAMPA
Starred links: 1 amine or outer side, 2 acyl side, 3 side chain; linkers in the order of their positions; H or OH if unused. Positions of bridges follow the written chain, without caps; N, C: chain ends. Non-standard residues stand in square brackets, D forms with d. Residues, ends and D or L forms follow the SMILES beside them. X1 = O=C([C@]1(CC=[*:3])CCCN1[*:1])[*:2]; αAllylPro = C=CC[C@@]1(C(=O)O)CCCN1; S5 = C=CCCC[C@](C)(N)C(=O)O; Nle = CCCC[C@H](N)C(=O)O
% Retention values by entry

Guide cases for % Retention, answers given:
[[record]]
compound = "CCCC[C@H](NC(=O)[C@]1(C)CCCC=CC[C@]2(CCCN2C(C)=O)C(=O)N[C@@H](CC(C)C)C(=O)N[C@@H](CCCNC(=N)N)C(=O)N1)C(=O)N[C@@H](CC(C)C)C(=O)N[C@@H](C)C(=O)N[C@@H](Cc1ccc(O)cc1)C(=O)NC [PLL4-12, Ac-PL3-Leu-Arg-S5-Nle-Leu-Ala-Tyr-NHMe] (Ac-[X1]LR[S5][Nle]LAY-NHMe; staple 1-4)"
value_reported = "42 ± 2%"

[[record]]
compound = "C=CCCC[C@](C)(NC(=O)[C@H](CC(C)C)NC(=O)[C@H](CCCCN)NC(=O)[C@]1(CC=C)CCCN1C(C)=O)C(=O)N[C@@H](CC(N)=O)C(=O)N[C@@H](CC(C)C)C(=O)N[C@@H](CC(C)C)C(=O)N[C@H](C(=O)N[C@@H](Cc1ccc(O)cc1)C(=O)NC)[C@@H](C)O [PLL4-5 variant 5] (Ac-[αAllylPro]KL[S5]NLLTY-NHMe)"
value_reported = "73 ± 4%"

[[record]]
compound = "CNC(=O)[C@H](Cc1ccc(O)cc1)NC(=O)[C@@H](NC(=O)[C@H](CC(C)C)NC(=O)[C@H](CC(C)C)NC(=O)[C@H](CC(N)=O)NC(=O)[C@]1(C)CCCC=CC[C@]2(CCCN2C(C)=O)C(=O)N[C@@H](CCCCN)C(=O)N[C@@H](CC(C)C)C(=O)N1)[C@@H](C)O [PLL4-5] (Ac-[X1]KL[S5]NLLTY-NHMe; staple 1-4)"
value_reported = "74 ± 3%"


query: # query: % Retention of entry CCCC[C@H](NC(=O)[C@H](CC(C)C)NC(=O)[C@]1(C)CCCC=CC[C@]2(CCCN2C(C)=O)C(=O)N[C@@H](C)C(=O)N[C@@H](CC(C)C)C(=O)N1)C(=O)N[C@@H](CC(C)C)C(=O)N[C@@H](C)C(=O)N[C@@H](Cc1ccc(O)cc1)C(=O)NC (single isomer, unassigned)
result: 48 ± 3%

query: Recorded % Retention of CNC(=O)[C@H](CC(N)=O)NC(=O)[C@H](CC(C)C)NC(=O)[C@H](CC(C)C)NC(=O)[C@H](Cc1c[nH]cn1)NC(=O)[C@]1(C)CCCC=CCCC[C@](C)(NC(C)=O)C(=O)N[C@@H](C)C(=O)N[C@@H](C)C(=O)N[C@@H](CC(C)C)C(=O)N1 [PLL7-20 variant 4] (Ac-[S5]AAL[S5]HLLN-NHMe; staple 1-5) , please.
result: 74 ± 6%

query: What measured % Retention goes with CNC(=O)[C@H](CC(=O)O)NC(=O)[C@H](CC(C)C)NC(=O)[C@H](CC(C)C)NC(=O)[C@H](Cc1ccc(O)cc1)NC(=O)[C@]1(C)CCCC=CCCC[C@](C)(NC(C)=O)C(=O)N[C@@H](C)C(=O)N[C@@H](CC(C)C)C(=O)N[C@@H](CC(C)C)C(=O)N1 [PLL4-10 variant 4] (Ac-[S5]ALL[S5]YLLD-NHMe; staple 1-5) ?
result: 74 ± 6%
